- measured target: EML4-ALK (Homo sapiens, UniProt Q9UM73)
- Construct: endogenous in cells; host or cells: H3122 (NSCLC), single-cell clone after CRISPR knock-in of HiBit; the other entry of the earlier key: EML4 (Q9HC35, Echinoderm microtubule-associated protein-like 4)
- Sequence (Q9UM73 with tags, fused parts or gaps): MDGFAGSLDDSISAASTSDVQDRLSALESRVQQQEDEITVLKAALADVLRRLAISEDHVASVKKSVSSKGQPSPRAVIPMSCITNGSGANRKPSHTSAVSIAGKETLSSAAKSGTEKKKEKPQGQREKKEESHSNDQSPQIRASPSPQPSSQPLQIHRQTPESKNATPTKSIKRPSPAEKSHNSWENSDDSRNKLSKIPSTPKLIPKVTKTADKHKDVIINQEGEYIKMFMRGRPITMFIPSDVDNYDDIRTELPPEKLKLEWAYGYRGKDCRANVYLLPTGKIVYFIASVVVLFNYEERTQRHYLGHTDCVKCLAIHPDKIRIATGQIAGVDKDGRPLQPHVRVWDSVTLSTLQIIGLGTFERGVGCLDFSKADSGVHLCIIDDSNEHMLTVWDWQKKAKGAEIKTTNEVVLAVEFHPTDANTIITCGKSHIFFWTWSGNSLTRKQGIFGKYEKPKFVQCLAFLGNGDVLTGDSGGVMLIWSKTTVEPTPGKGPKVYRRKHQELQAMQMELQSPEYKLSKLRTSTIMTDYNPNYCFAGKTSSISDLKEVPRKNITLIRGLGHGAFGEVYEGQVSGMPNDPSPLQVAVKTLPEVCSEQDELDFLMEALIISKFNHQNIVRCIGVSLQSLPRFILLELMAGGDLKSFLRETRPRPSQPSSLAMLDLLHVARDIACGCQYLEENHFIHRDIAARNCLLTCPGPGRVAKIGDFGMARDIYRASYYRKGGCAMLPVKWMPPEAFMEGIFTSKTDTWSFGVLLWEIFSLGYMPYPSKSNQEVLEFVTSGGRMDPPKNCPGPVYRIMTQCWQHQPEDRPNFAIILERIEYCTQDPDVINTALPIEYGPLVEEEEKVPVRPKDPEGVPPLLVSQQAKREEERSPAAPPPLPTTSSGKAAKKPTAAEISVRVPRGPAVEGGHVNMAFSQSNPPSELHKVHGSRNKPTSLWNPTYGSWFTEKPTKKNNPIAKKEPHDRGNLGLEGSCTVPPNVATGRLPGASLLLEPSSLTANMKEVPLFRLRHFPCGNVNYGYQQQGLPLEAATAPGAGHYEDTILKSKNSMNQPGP
- measurement description: EML4-ALK HiBit degradation assay in CRISPR-tagged H3122 cells (Nano-Glo HiBit Lytic Detection)
- Assay type: cell-based
- test context: Table 1, second DC50 column; H3122 EML4-ALK-HiBit, 16 hours; read-out: Degradation DC50
outcome measure: DC50 (nM)

Study these solved cases before continuing.
# compound, display unit, DC50
measured = [
    ("COc1cc(CCNCCCCCOc2cc(-c3scnc3C)ccc2[C@H](C)NC(=O)[C@@H]2C[C@@H](O)CN2C(=O)[C@@H](NC(C)=O)C(C)(C)C)c(C)cc1Nc1ncc(Cl)c(Nc2ccccc2S(=O)(=O)C(C)C)n1", "nM", 72),
    ("COc1cc(CCN(C)C(=O)CCCCCNc2cccc3c2C(=O)N(C2CCC(=O)NC2=O)C3=O)c(C)cc1Nc1ncc(Cl)c(Nc2ccccc2S(=O)(=O)C(C)C)n1 (stereo not drawn)", "nM", 46),
    ("COc1cc(CCN(C)C(=O)CCOCCC(=O)N[C@H](C(=O)N2C[C@H](O)C[C@H]2C(=O)N[C@@H](C)c2ccc(-c3scnc3C)cc2)C(C)(C)C)c(C)cc1Nc1ncc(Cl)c(Nc2ccccc2S(=O)(=O)C(C)C)n1", "nM", 107),
    ("CN[C@@H](C)C(=O)N[C@H](C(=O)N1Cc2cc(OCCCCCNCCc3cc(OC)c(Nc4ncc(Cl)c(Nc5ccccc5S(=O)(=O)C(C)C)n4)cc3C)ccc2C[C@H]1C(=O)N[C@H]1CCCc2ccccc21)C(C)(C)C", "nM", 184),
]

I = COc1cc(CCNCCOCCOCCOCCC(=O)N[C@H](C(=O)N2C[C@H](O)C[C@H]2C(=O)N[C@@H](C)c2ccc(-c3scnc3C)cc2)C(C)(C)C)c(C)cc1Nc1ncc(Cl)c(Nc2ccccc2S(=O)(=O)C(C)C)n1
II = COc1cc(CCNCCOCCOCCC(=O)N[C@H](C(=O)N2C[C@H](O)CC2C(=O)N[C@@H](C)c2ccc(-c3scnc3C)cc2)C(C)(C)C)c(C)cc1Nc1ncc(Cl)c(Nc2ccccc2S(=O)(=O)C(C)C)n1 (stereo partly drawn)
Smaller DC50 value, I vs II ? Respond using the label that marks the chosen record.
II

----------
- measured target: EML4-ALK (Homo sapiens)
- Construct: endogenous in cells; host or cells: H3122 (NSCLC), single-cell clone after CRISPR knock-in of HiBit; the other entry of the earlier key: EML4 (Q9HC35, Echinoderm microtubule-associated protein-like 4)
- measurement description: EML4-ALK HiBit degradation assay in CRISPR-tagged H3122 cells (Nano-Glo HiBit Lytic Detection)
- Type: cell-based
- test context: NCI-H3122, Table 1; average Dmax; read-out: Degradation Avg. Dmax
outcome measure: Dmax (%)

Study these solved cases before continuing.
# compound, measured target, Dmax (%)
rows = [
    ("COc1cc(CCNCCOCCOCCOCCC(=O)N[C@H](C(=O)N2C[C@H](O)C[C@H]2C(=O)N[C@@H](C)c2ccc(-c3scnc3C)cc2)C(C)(C)C)c(C)cc1Nc1ncc(Cl)c(Nc2ccccc2S(=O)(=O)C(C)C)n1", "EML4-ALK (Homo sapiens)", 88.7),
    ("COc1cc(CCN(C)C(=O)CCCNC(=O)COc2cccc3c2C(=O)N(C2CCC(=O)NC2=O)C3=O)c(C)cc1Nc1ncc(Cl)c(Nc2ccccc2S(=O)(=O)C(C)C)n1 (centres unmarked)", "EML4-ALK (Homo sapiens)", 44.5),
]

1 = COc1cc(CCN(C)C(=O)CCCCCCC(=O)N[C@H](C(=O)N2C[C@H](O)C[C@H]2C(=O)N[C@@H](C)c2ccc(-c3scnc3C)cc2)C(C)(C)C)c(C)cc1Nc1ncc(Cl)c(Nc2ccccc2S(=O)(=O)C(C)C)n1
2 = CC[C@@H](NC(=O)C1CC(NC(=O)CCCCCCC(=O)N(C)CCc2cc(OC)c(Nc3ncc(Cl)c(Nc4ccccc4S(=O)(=O)C(C)C)n3)cc2C)CN1C(=O)[C@@H](NC(=O)[C@H](C)NC)C(C)(C)C)c1ccccc1 (some centres unmarked)
Choose between 1 and 2 : whose measured Dmax value is numerically larger? Respond using the label that marks the chosen record.
2
(2: 88.2%, 1: 55.1%)
